# System under test: Progesterone receptor (Homo sapiens) (UniProt P06401)
# Sequence (P06401 whole entry, looked up): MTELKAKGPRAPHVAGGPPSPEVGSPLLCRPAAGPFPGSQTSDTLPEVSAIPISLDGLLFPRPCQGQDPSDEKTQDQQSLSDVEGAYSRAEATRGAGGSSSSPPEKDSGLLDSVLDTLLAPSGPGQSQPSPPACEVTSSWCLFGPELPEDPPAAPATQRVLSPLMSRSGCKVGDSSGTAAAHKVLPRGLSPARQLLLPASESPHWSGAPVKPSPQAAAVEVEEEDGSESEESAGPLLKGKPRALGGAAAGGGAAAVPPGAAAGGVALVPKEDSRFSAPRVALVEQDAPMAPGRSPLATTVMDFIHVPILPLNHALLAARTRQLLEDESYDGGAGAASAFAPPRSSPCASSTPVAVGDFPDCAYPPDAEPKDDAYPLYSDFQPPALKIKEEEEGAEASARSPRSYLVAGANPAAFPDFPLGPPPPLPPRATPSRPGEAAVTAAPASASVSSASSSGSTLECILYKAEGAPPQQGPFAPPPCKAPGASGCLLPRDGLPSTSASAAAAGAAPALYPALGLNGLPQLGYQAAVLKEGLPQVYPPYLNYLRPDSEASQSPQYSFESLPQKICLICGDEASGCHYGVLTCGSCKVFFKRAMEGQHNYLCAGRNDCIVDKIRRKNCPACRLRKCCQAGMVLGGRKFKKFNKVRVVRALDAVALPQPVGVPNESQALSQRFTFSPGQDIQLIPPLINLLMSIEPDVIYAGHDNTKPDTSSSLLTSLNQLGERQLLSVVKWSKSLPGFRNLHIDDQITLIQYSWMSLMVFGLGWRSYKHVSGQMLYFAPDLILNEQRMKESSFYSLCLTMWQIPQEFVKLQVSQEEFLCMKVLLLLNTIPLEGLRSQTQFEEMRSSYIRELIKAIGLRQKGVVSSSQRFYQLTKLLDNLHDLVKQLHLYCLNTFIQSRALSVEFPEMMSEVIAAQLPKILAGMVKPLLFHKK
# Assay info: qHTS assay to identify small molecule antagonists of the progesterone receptor (PR) signaling pathway (AID 1346795)
# Stated conditions: PR-UAS-bla HEK293T, beta-lactamase FRET ratio, 16 h; series mostly up to 92.4 µM
Records with an inconclusive call do not appear. Activity calls are given as the source filed them. Calls come from the whole dose curve; as a rule, active = well fitted inhibition curve with a large enough effect in the signal ratio in the repeat runs (not every such curve was filed as active); inconclusive = weak or mixed curves; inactive = flat fitted curve, though single readings scatter; the % refers to the signal ratio.
Outcome codes: T (active), F (inactive)

Compound	Assigned label
CC(C)O.CC(C)O.CCOC(=O)/C=C(\C)O.CCOC(=O)/C=C(\C)O.[Ti]	F
O=CC1CC=CCC1 (stereo not given)	F
CCOC(=O)Cc1cccc2ccccc12	F
CCC(C)(C)CC	F
CN(C)C(=O)NC1(c2ccccc2)CCN(CC[C@@]2(c3ccc(F)c(F)c3)CN(C(=O)c3ccccc3)CCO2)CC1	F
O=C(O)C(S)C(S)C(=O)O (stereo not given)	F
O=C(O)C1(C(=O)O)CCC1.[NH2-].[NH2-].[Pt+2]	F
CC(=O)[O][Al][O]C(C)=O	F
O=C1C(O)=C(O)C(=O)C(O)=C1O	F
Cc1ccc(N=Nc2c(O)c(C(=O)O)cc3ccccc23)c(S(=O)(=O)O)c1	F
CC1(c2ccccc2)OC(C(=O)O)=CC1=O (stereo not given)	F
CCCCC	F
O=[N+]([O-])c1ccc(NCCO)c(OCCO)c1	F
C[Si](C)(CCCN)O[Si](C)(C)CCCN	F
CC1=CC=C(C(C)C)CC1	F
CCc1c(C(=O)NN2CCCCC2)nn(-c2ccc(Cl)cc2Cl)c1-c1ccc(Br)cc1	T
CC(C)OC(=O)C(C)N(C(=O)c1ccccc1)c1ccc(F)c(Cl)c1 (stereo not given)	T
O=C1[C@H]2CCCC[C@H]2C(=O)N1CCCCN1CCN(c2nsc3ccccc23)CC1	F
COc1cc(C(=O)OCCCN2CCCN(CCCOC(=O)c3cc(OC)c(OC)c(OC)c3)CC2)cc(OC)c1OC	F
CCCCOC(=O)CCCCCCCC(=O)OCCCC	F
CCCCC1=NC2(CCCC2)C(=O)N1Cc1ccc(-c2ccccc2-c2nn[nH]n2)cc1	F
Nc1ccc(S(=O)(=O)Nc2ccccc2)cc1	F
NCc1ccccc1Sc1ccccc1CO	F
Cc1cccc(C)c1NC(=O)CN(CC(=O)O)CC(=O)O	F
C=C1[C@H]2CC[C@@H]3[C@H]2C(C)(C)CCC[C@]13C	F
COc1cc2nc(N(C)CCCNC(=O)C3CCCO3)nc(N)c2cc1OC (stereo not given)	F
C=CC1CC2C=CC1C2 (stereo not given)	F
CC(=O)c1cccc([N+](=O)[O-])c1	F
C#Cc1cccc(Nc2ncnc3cc(OCCOC)c(OCCOC)cc23)c1	F
CCCCCCCCCCCCCCCCCCOS(=O)(=O)O	F
COCCCN1CCC(NC(=O)c2cc(Cl)c(N)c3c2OCC3)CC1	F
CNC(=O)CN(CCN(CCN(CC(=O)[O-])CC(=O)NC)CC(=O)[O-])CC(=O)[O-].O.[Gd+3]	F
CCN(CC)c1ccc(C(=C2C=CC(=[N+](CC)CC)C=C2)c2cc(S(=O)(=O)O)ccc2S(=O)(=O)[O-])cc1	F
COC(C)OC	F
COc1cc2c(cc1OC)C(C(C(=O)N(CCc1ccc(OC)c(OC)c1OC)CCc1ccc(OC)c(OC)c1OC)c1ccccc1)=NCC2 (stereo not given)	F
CN(C)c1ccc(C(c2ccccc2)c2ccc(N(C)C)cc2)cc1	T
Cc1oc2c(NC(=O)c3c(Cl)cccc3Cl)cccc2c1C(C)(C)O	T
Nc1cc(C(=O)O)c(O)c(S(=O)(=O)O)c1	F
CCN(CC)c1ccc2c(-c3ccccc3C(=O)O)c3ccc(=[N+](CC)CC)cc-3oc2c1	F
Cc1ccccc1S(=O)(=O)O	F
CCCCO	F
CCCCNc1ccc(C(=O)OCCOCCOCCOCCOCCOCCOCCOCCOCCOC)cc1	F
CCCCCCCCCc1ccc(OCCOCCO)cc1	T
NCCCN1CCOCC1	F
CC(C)(C)Cl	F
COc1ccc2cccc(CCNC(C)=O)c2c1	F
Nc1c(CC(=O)O)cccc1C(=O)c1ccc(Br)cc1	F
CC(C)C[C@H]1C(=O)N2CCC[C@H]2[C@]2(O)O[C@](NC(=O)[C@@H]3C=C4c5cccc6[nH]c(Br)c(c56)C[C@H]4N(C)C3)(C(C)C)C(=O)N12	F
COC(C)(C)CCO	F
COC(=O)c1ccc(I)cc1S(=O)(=O)NC(=O)Nc1nc(C)nc(OC)n1	F
